Data origin, for the record: ChEMBL document CHEMBL1147767

- test-description: Clearance in male Sprague-Dawley rats
- Format: ADME, organism-based
- measurement-parameters: rat, in vivo
measured-metric: clearance
Respond with the figure and its unit, in that order.

Entry Cc1c(COc2ccc(-c3ccc(S(=O)(=O)N[C@H](Cc4ccccc4)C(=O)O)cc3)cc2)oc2ccccc12 : reported clearance = ?
16.1 mL/min/kg

---

- target-system: Collagenase 3 (Homo sapiens, UniProt P45452)
measured-metric: IC50 (nM)
Quick reminder: number only, in nM, skip the unit.

Consider the compound Cc1c(COc2ccc(-c3ccc(S(=O)(=O)N[C@H](Cc4ccccc4)C(=O)O)cc3)cc2)oc2ccccc12 and give its measured IC50.
4.4
